# Tested on: MDA-MB-468 spheroids with HUVEC/MSC, viability
# Assay Info: Anticancer human tumor MDA-MB-468 cell line growth inhibition [PI3K];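 further: spheroids exposed to agents for seven days before readout; 100% = DMSO vehicle control viability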
# Condition Description: second compound 0.0316 µM; first compound 0.0316 µM; active compounds read low
Endpoint: viability, T/C (%)
Return type: number; implicit unit %.

CC1(C)CCC(CN2CCN(c3ccc(C(=O)NS(=O)(=O)c4ccc(NCC5CCOCC5)c([N+](=O)[O-])c4)c(Oc4cnc5[nH]ccc5c4)c3)CC2)=C(c2ccc(Cl)cc2)C1 + COc1c(OCCCN2CCOCC2)ccc2c3n(c(=NC(=O)c4cnc(N)nc4)nc12)CCN3; 77.5
CNC(=O)c1ccc(N2C(=S)N(c3ccc(C#N)c(C(F)(F)F)c3)C(=O)C2(C)C)cc1F + CC(Nc1ccc2c(c1)OCCn1cc(N3C(=O)OCC3C(F)F)nc1-2)C(N)=O; 90.7
CC(=O)c1c(C)c2cnc(Nc3ccc(N4CCNCC4)cn3)nc2n(C2CCCC2)c1=O + CC(Nc1ccc2c(c1)OCCn1cc(N3C(=O)OCC3C(F)F)nc1-2)C(N)=O; 97
Cn1ncnc1[C@H]1c2n[nH]c(=O)c3cc(F)cc(c23)N[C@@H]1c1ccc(F)cc1 + COc1c(OCCCN2CCOCC2)ccc2c3n(c(=NC(=O)c4cnc(N)nc4)nc12)CCN3; 57.6

With those in mind, consider the next molecule.
Query: Return the recorded viability, T/C value; entry: Cn1nccc1Nc1nccc(-c2ccn(C(CO)c3ccc(Cl)c(F)c3)c(=O)c2)n1 (stereo not given) + COc1c(OCCCN2CCOCC2)ccc2c3n(c(=NC(=O)c4cnc(N)nc4)nc12)CCN3
Reply: 71.3

###

Recorded viability, T/C by entry
# System: MDA-MB-468 spheroids with HUVEC/MSC, viability
# Assay Info: Anticancer human tumor MDA-MB-468 cell line growth inhibition [PI3K];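 further: spheroids exposed to agents for seven days before readout; 100% = DMSO vehicle control viability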
# Condition Description: second compound 0.1 µM; first compound 0.000316 µM; active compounds read low

Examples from the recorded data:
CC(C)n1nc(-c2ccc3oc(N)nc3c2)c2c(N)ncnc21 + CC(Nc1ccc2c(c1)OCCn1cc(N3C(=O)OCC3C(F)F)nc1-2)C(N)=O; 103%
Cn1ncnc1[C@H]1c2n[nH]c(=O)c3cc(F)cc(c23)N[C@@H]1c1ccc(F)cc1 + CC(Nc1ccc2c(c1)OCCn1cc(N3C(=O)OCC3C(F)F)nc1-2)C(N)=O; 99.5%
CC(=O)c1c(C)c2cnc(Nc3ccc(N4CCNCC4)cn3)nc2n(C2CCCC2)c1=O + CC(Nc1ncnc2nc[nH]c12)c1cc2cccc(Cl)c2c(=O)n1-c1ccccc1; 88.6%
CC(C)n1nc(-c2ccc3oc(N)nc3c2)c2c(N)ncnc21 + Cc1nc(NC(=O)N2CCCC2C(N)=O)sc1-c1ccnc(C(C)(C)C(F)(F)F)c1; 93.7%
CC(C)n1nc(-c2ccc3oc(N)nc3c2)c2c(N)ncnc21 + COc1c(OCCCN2CCOCC2)ccc2c3n(c(=NC(=O)c4cnc(N)nc4)nc12)CCN3; 49.8%

With those in mind, consider the next compound.
Query: Return the recorded viability, T/C value; entry: Cn1ncnc1[C@H]1c2n[nH]c(=O)c3cc(F)cc(c23)N[C@@H]1c1ccc(F)cc1 + COc1c(OCCCN2CCOCC2)ccc2c3n(c(=NC(=O)c4cnc(N)nc4)nc12)CCN3
Reply: 60.8%
